As shown below, each of these binders has a reported NanoBRET Abs IC50 value.
Assay target: T1, B-cat-Halo (Homo sapiens (Human), UniProt P35222 1-781)
T1 sequence: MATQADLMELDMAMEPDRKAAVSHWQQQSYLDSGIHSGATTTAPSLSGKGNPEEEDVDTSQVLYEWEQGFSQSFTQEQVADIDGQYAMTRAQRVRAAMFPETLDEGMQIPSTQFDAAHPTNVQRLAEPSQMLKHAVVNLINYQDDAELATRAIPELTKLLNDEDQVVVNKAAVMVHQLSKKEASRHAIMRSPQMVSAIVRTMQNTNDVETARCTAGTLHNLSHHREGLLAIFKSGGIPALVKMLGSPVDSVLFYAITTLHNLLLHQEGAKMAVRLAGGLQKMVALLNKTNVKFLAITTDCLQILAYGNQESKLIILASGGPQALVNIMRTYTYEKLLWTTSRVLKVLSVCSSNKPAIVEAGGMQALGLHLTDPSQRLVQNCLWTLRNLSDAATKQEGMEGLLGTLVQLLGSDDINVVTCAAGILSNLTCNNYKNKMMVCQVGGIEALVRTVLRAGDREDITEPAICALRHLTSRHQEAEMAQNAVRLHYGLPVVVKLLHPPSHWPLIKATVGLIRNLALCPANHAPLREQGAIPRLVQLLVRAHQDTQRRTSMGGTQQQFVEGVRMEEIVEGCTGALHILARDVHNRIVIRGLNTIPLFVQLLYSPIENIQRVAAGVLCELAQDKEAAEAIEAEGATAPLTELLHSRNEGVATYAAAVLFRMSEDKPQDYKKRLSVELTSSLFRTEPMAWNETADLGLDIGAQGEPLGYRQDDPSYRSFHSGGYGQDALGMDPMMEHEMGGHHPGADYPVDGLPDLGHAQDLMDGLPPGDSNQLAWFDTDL
Protocol notes: cell-based or functional assay
Starred links: 1 amine or outer side, 2 acyl side, 3 side chain; linkers in the order of their positions; H or OH if unused. Positions of bridges follow the written chain, without caps; N, C: chain ends. Non-standard residues stand in square brackets, D forms with d. Primed or numbered codes have the meaning given here. PyrS2″ = (S)-3-amino-1-((pent-4-en-1-yloxy)carbonyl)pyrrolidine-3-carboxylic acid (stapling residue), C=CCCCOC(=O)N1CC[C@@](N[*:1])(C(=O)[*:2])C1; B5(3) = 2,2-bis(4-pentenyl)glycine (stitching residue), C=CCCCC(CCCC=C)(N[*:1])C(=O)[*:2]; Phe(3-COOH) = N[C@@H](Cc1cccc(C(=O)O)c1)C(=O)O; Phe(2-Cl) = N[C@@H](Cc1ccccc1Cl)C(=O)O; Bta = N[C@@H](Cc1csc2ccccc12)C(=O)O; αAllylPro = C=CC[C@@]1(C(=O)O)CCCN1; tBuAla = CC(C)(C)C[C@H](N)C(=O)O; 3Thi = N[C@@H](Cc1ccsc1)C(=O)O
Reply with just the number (in µM).

INSERT INTO results (binder, measurement_units, assay_result) VALUES
  ('Ac-[αAllylPro]D[tBuAla][B5(3)]D[Phe(3-COOH)]NAFL[PyrS2″][3Thi][Bta]A-NH2 (staple 1-4, 4-11) [I-2049]', 'µM', 4.5),
  ('Ac-[αAllylPro]D[tBuAla][B5(3)]D[Phe(3-COOH)]AAFA[PyrS2″][3Thi][Bta]N-NH2 (staple 1-4, 4-11) [I-2042]', 'µM', 10),
  ('Ac-[αAllylPro]D[tBuAla][B5(3)]D[Phe(3-COOH)]AAFL[PyrS2″][3Thi][Bta]N-NH2 (staple 1-4, 4-11) [I-2043]', 'µM', 2.8);

Then there is this binder:
NanoBRET Abs IC50 for Ac-[αAllylPro]D[tBuAla][B5(3)]D[Phe(3-COOH)]AAFA[PyrS2″][Phe(2-Cl)][Bta]N-NH2 (staple 1-4, 4-11; also: staple isomer, earlier eluting HPLC peak) [I-2035] ?
14.5

Ref: patent US20240116985A1
